molecular target: FLuc-C-HiBiT (Photinus pyralis); construct: firefly luciferase with C-terminal HiBiT tag, E. coli expressed; test: biochemical; conditions: enzyme activity, 10 uM ATP; read-out: IC50 or SDR50 (mM) / FLuc E
property.name: IC50 (mM)

{"molecule": "CCc1ccc2oc(-c3ccc(C)c(NC(=O)c4ccc(C#N)cc4F)c3)nc2c1 [NCGC00103160-01]", "property.name": "IC50", "qualifier.operator": ">", "observed.value": 0.03}
{"molecule": "COc1cccc(-c2cc3c(=O)n(CCNC(=O)C4CCN(C(C)=O)CC4)ccn3n2)c1 [NCGC00457070-01]", "property.name": "IC50", "qualifier.operator": "=", "observed.value": 0.0124}
{"molecule": "COC(=O)c1c(-c2cccs2)csc1NC(=O)c1ccc(C)cc1 [NCGC00118339-01]", "property.name": "IC50", "qualifier.operator": "=", "observed.value": 0.0157}
{"molecule": "Cc1ccc(-c2cc(N3CCC(CNC(=O)c4ccc5[nH]cnc5c4)CC3)[nH]n2)cc1 [NCGC00437766-01]", "property.name": "IC50", "qualifier.operator": "=", "observed.value": 0.00881}
{"molecule": "Cn1cc(-c2ccc(Cl)cc2)cc1C(=O)O [NCGC00432667-01]", "property.name": "IC50", "qualifier.operator": ">", "observed.value": 0.03}
{"molecule": "COc1ccc(-c2nc3ccccc3s2)cc1NC(C)=O [NCGC00141118-01]", "property.name": "IC50", "qualifier.operator": "=", "observed.value": 0.00624}
{"molecule": "Cc1ccc(Cn2cc(-c3ccncc3)cc2C(=O)O)cc1 [NCGC00432741-01]", "property.name": "IC50", "qualifier.operator": ">", "observed.value": 0.03}
{"molecule": "C=CCCC(=O)N1CCOc2c(O)cc(-c3nc4ccccc4s3)cc2C1 [NCGC00429409-01]", "property.name": "IC50", "qualifier.operator": ">", "observed.value": 0.03}
{"molecule": "Cc1ccc(-c2nc(C)c(CCNC(=O)c3cccs3)s2)cc1 [NCGC00135815-01]", "property.name": "IC50", "qualifier.operator": "=", "observed.value": 0.0176}
{"molecule": "COc1cccc2cc(C(=O)Nc3ccc(C)cc3)c(=O)oc12 [NCGC00099361-01]", "property.name": "IC50", "qualifier.operator": "=", "observed.value": 0.000495}
{"molecule": "CN(Cc1cccnc1)c1ccc(-c2nc(COc3ccccc3)no2)cn1 [NCGC00425502-01]", "property.name": "IC50", "qualifier.operator": "=", "observed.value": 0.0124}
{"molecule": "COc1ccc(NC(=O)N2CCc3c(C(=O)NCc4ccncc4)cccc32)cc1 [NCGC00430180-01]", "property.name": "IC50", "qualifier.operator": "=", "observed.value": 0.000624}
{"molecule": "CC1CCCCN1c1ncnc2c1cnn2-c1ccccc1 (centres unmarked) [NCGC00605414-01]", "property.name": "IC50", "qualifier.operator": "=", "observed.value": 0.00111}
{"molecule": "Cc1ccc2nc(-c3ccc(N)cc3)sc2c1[S+](=O)([O-])O [NCGC00091147-01]", "property.name": "IC50", "qualifier.operator": "=", "observed.value": 0.00248}
{"molecule": "CCc1ccc2oc(-c3cccc(NC(=O)c4cc5ccccc5o4)c3)nc2c1 [NCGC00098909-01]", "property.name": "IC50", "qualifier.operator": "=", "observed.value": 0.0124}
{"molecule": "COc1ccc(NC(=O)C2CCN(C(=O)c3ncn4c3COC(c3ccccc3)C4)CC2)cc1OC (centres unmarked) [NCGC00449911-01]", "property.name": "IC50", "qualifier.operator": "=", "observed.value": 0.00351}
{"molecule": "Brc1ccccc1-c1nc(-c2ccccc2)no1 [NCGC00075547-01]", "property.name": "IC50", "qualifier.operator": "=", "observed.value": 0.00351}
{"molecule": "Cn1ccnc1C(O)c1cc2n(n1)CCN(c1ncnc3[nH]cnc13)C2 (centres unmarked) [NCGC00422809-01]", "property.name": "IC50", "qualifier.operator": ">", "observed.value": 0.03}
{"molecule": "CCOc1ccc(C(=O)Nc2onc3c2CCCC3)cc1 [NCGC00115912-01]", "property.name": "IC50", "qualifier.operator": "=", "observed.value": 0.00197}
{"molecule": "Nc1nc2c(nc(O)n2[C@H]2C[C@H](O)[C@@H](CO)O2)c(=O)[nH]1 [NCGC00475978-01]", "property.name": "IC50", "qualifier.operator": ">", "observed.value": 0.03}
{"molecule": "COc1cccc(C(=O)Nc2ccccc2-c2nc3ccccc3s2)c1 [NCGC00102557-01]", "property.name": "IC50", "qualifier.operator": ">", "observed.value": 0.03}
{"molecule": "O=C(NCc1ccco1)Nc1cccc(-c2ccc(N3CCCC3)nn2)c1 [NCGC00427562-01]", "property.name": "IC50", "qualifier.operator": "=", "observed.value": 0.00989}
{"molecule": "Cc1c(-c2ccccc2F)[nH]c2ccc(CNC(=O)CCc3cc(O)no3)cc12 [NCGC00437347-01]", "property.name": "IC50", "qualifier.operator": "=", "observed.value": 0.00989}
{"molecule": "O=C(Nc1ccc2c(c1)OCCO2)N1CC(c2nc(CCOCC3CC3)no2)C1 [NCGC00464361-01]", "property.name": "IC50", "qualifier.operator": "=", "observed.value": 0.00989}
{"molecule": "COc1cccc(C(=O)Nc2ccc(-c3nc4ccccc4s3)c(O)c2)c1 [NCGC00594708-01]", "property.name": "IC50", "qualifier.operator": ">", "observed.value": 0.03}
{"molecule": "COc1ccc(NC(=O)Nc2cccc(-c3ccc(N4CCOCC4)nn3)c2)cc1 [NCGC00427572-01]", "property.name": "IC50", "qualifier.operator": "=", "observed.value": 0.00176}
{"molecule": "Cc1ccc(CNC(=O)c2ccc3c(c2)CN(Cc2cnn(C)c2C)CCO3)cc1 [NCGC00426362-01]", "property.name": "IC50", "qualifier.operator": ">", "observed.value": 0.03}
{"molecule": "Oc1ccc(-c2nc(C3CC3)nc3c2CCN(Cc2cccc(F)c2)CC3)cc1 [NCGC00480349-01]", "property.name": "IC50", "qualifier.operator": ">", "observed.value": 0.03}
{"molecule": "Cc1cc(-c2nc3cc(F)ccc3s2)ccc1NC(=O)[C@@H](N)CCCCN [NCGC00379246-02]", "property.name": "IC50", "qualifier.operator": "=", "observed.value": 0.00248}

---

# maps each entry to its SDR + 10 mM ATP
biological target: FLuc-C-NLuc (firefly luciferase) (Photinus pyralis, UniProt P08659, form not given/L550V); experiment: SDR assay, FLuc-C-NLuc; conditions: 1 nM FLuc-C-NLuc; normalized activity; Log [Compound], M -8.78
Sequence (P08659 2-550 L550V, form open): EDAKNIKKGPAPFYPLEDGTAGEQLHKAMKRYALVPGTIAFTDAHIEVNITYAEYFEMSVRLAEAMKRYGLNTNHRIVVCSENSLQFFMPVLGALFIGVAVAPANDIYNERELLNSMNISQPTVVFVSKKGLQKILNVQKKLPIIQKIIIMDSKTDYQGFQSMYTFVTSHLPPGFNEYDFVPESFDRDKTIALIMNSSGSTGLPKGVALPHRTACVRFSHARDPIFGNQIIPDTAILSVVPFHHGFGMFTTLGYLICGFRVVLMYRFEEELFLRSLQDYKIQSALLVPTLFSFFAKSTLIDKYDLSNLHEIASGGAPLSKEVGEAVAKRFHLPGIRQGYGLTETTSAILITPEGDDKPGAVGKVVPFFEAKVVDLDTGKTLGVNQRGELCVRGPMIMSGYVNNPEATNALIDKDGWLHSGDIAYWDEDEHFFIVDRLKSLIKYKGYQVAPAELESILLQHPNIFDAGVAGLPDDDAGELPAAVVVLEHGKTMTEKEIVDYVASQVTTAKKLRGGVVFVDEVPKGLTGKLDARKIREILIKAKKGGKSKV

{"compound": "O=C(O)CCSc1nnc(-c2ccc(Cl)cc2Cl)o1", "SDR + 10 mM ATP": 6.0}
{"compound": "CNC(=O)c1cccc2c1CCN2C(=O)Nc1ccc(C)cc1", "SDR + 10 mM ATP": -0.9}
{"compound": "COc1ccc(-c2nc(-c3ccc(C(=O)O)cc3)no2)cc1", "SDR + 10 mM ATP": 27.8}
{"compound": "O=C(O)c1cccc2c1CCN2C(=O)Nc1ccc(F)cc1", "SDR + 10 mM ATP": 59.2}
{"compound": "CC(CNC(=O)C1CCN(C(=O)c2ncn3c2COC(c2ccccc2)C3)CC1)c1ccccc1 (stereo not drawn)", "SDR + 10 mM ATP": -2.4}
{"compound": "CC1CCCN(c2ncnc3c2cnn3-c2ccccc2)C1 (stereo not drawn)", "SDR + 10 mM ATP": 3.4}

---

biological target: FLuc-C-HiBiT (Photinus pyralis, UniProt P08659); construct: firefly luciferase with C-terminal HiBiT tag, E. coli expressed; assay: biochemical; conditions: enzyme activity, 10 uM ATP; read-out: IC50 or SDR50 (mM) / FLuc E
Sequence (P08659 whole entry, looked up): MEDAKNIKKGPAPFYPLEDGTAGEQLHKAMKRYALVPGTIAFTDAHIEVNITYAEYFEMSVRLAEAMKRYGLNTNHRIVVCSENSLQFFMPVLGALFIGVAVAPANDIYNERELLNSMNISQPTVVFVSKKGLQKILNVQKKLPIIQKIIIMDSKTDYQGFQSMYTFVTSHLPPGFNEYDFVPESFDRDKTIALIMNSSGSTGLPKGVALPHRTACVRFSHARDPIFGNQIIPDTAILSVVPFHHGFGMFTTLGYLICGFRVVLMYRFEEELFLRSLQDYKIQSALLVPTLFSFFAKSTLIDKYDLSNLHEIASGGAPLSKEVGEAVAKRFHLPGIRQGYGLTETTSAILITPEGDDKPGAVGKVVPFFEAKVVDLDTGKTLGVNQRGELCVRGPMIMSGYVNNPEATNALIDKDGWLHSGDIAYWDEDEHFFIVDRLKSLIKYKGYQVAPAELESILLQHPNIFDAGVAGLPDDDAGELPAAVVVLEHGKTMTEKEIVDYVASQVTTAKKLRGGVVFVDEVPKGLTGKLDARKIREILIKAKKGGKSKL
property.name: IC50

{"smiles.string": "COCCOc1nc(N)c2[nH]c(=O)n(Cc3ccc(C(=O)O)cc3)c2n1", "target.desc": "FLuc-C-HiBiT (Photinus pyralis, UniProt P08659)", "observed.value": "> 0.03 mM"}
{"smiles.string": "Cc1noc(C)c1CN1CCc2nc(C(=O)Nc3ccccc3)oc2CC1", "target.desc": "FLuc-C-HiBiT (Photinus pyralis, UniProt P08659)", "observed.value": "> 0.03 mM"}
{"smiles.string": "COc1ccc(CC(=O)Nc2ccc(-c3nc4ccccc4s3)cc2Cl)cc1OC", "target.desc": "FLuc-C-HiBiT (Photinus pyralis, UniProt P08659)", "observed.value": "> 0.03 mM"}

# credit: paper PMC12064818
